Assay: Acute oral toxicity study in mice
Format: in vivo
Details: mouse, in vivo, po; administered orally in mice
Recorded metric: LD50 at 336 h

Record request: LD50 at 336 h value, item COc1ccc(NC(=O)C=Cc2ccc([N+](=O)[O-])o2)c(C)c1 [compound (I)]
> 4000 mg/kg
